Endpoint: log10(MIC). System: Staph. aureus Smith. Items follow.
Scale type: logarithmic (base 10). Underlying MIC unit: µg/mL.

Check out these entries, answers already filled in.
* CO/N=C(\C(=O)NC1C(=O)N2C(C(=O)O)=C(COC(=O)c3ccc(NC(=O)CCN)c(O)c3)CSC12)c1csc(N)n1 (stereo not drawn) | -0.60
* CO/N=C(\C(=O)NC1C(=O)N2C(C(=O)O)=C(COC(=O)c3ccc(NC(=O)[C@@H](N)CCCN)c(O)c3)CSC12)c1csc(N)n1 (stereo partly drawn) | -0.30
* CC(C)(O/N=C(\C(=O)NC1C(=O)N2C(C(=O)O)=C(COC(=O)c3ccc(NC(=O)[C@@H](N)CCCN)c(O)c3)CSC12)c1csc(N)n1)C(=O)O (stereo partly drawn) | 0.90
* CO/N=C(\C(=O)NC1C(=O)N2C(C(=O)O)=C(COC(=O)c3ccc(NC(=O)CN)c(O)c3)CSC12)c1csc(N)n1 (stereo not drawn) | -0.60
* CC(C)(O/N=C(\C(=O)NC1C(=O)N2C(C(=O)O)=C(COC(=O)c3ccc(NC(=O)CN)c(O)c3)CSC12)c1csc(N)n1)C(=O)O (stereo not drawn) | 0.30

Query string: Need log10(MIC), item CO/N=C(\C(=O)NC1C(=O)N2C(C(=O)O)=C(COC(=O)c3ccc(NS(=O)(=O)CCN)c(O)c3)CSC12)c1csc(N)n1 (stereo not drawn)
Result string: -0.60

Query string: Quick one: log10(MIC) for CC(C)(O/N=C(\C(=O)NC1C(=O)N2C(C(=O)O)=C(COC(=O)c3ccc(NC(=O)C(N)CCN)c(O)c3)CSC12)c1csc(N)n1)C(=O)O (stereo not drawn) ?
Result string: 0.90

Query string: Look up log10(MIC) for this compound: CO/N=C(\C(=O)NC1C(=O)N2C(C(=O)O)=C(COC(=O)c3ccc(NC(=O)C(N)CCN)c(O)c3)CSC12)c1csc(N)n1 (stereo not drawn)
Result string: -0.30

Query string: So what does the record say about log10(MIC) for CC(C)(O/N=C(\C(=O)NC1C(=O)N2C(C(=O)O)=C(COC(=O)c3ccc(NC(=O)CCN)c(O)c3)CSC12)c1csc(N)n1)C(=O)O (stereo not drawn) ?
Result string: 0.60

* * *

Experiment: protein binding by comparing two standard scales in baboon plasma and phosphate buffer
Format: in vitro ADME
Settings: baboon plasma vs phosphate buffer (pH 7, 0.03M)
Form field: fraction unbound (one value per entry).
Kindly provide the number alone.

// solved cases for fraction unbound follow
- CC(C)(O/N=C(\C(=O)NC1C(=O)N2C(C(=O)O)=C(COC(=O)c3ccc(NC(=O)CN)c(O)c3)CSC12)c1csc(N)n1)C(=O)O (stereo not drawn): 0.16
- CC(C)(O/N=C(\C(=O)NC1C(=O)N2C(C(=O)O)=C(COC(=O)c3ccc(NC(=O)C(N)CCN)c(O)c3)CSC12)c1csc(N)n1)C(=O)O (stereo not drawn): 0.08
- CC(C)(O/N=C(\C(=O)NC1C(=O)N2C(C(=O)O)=C(COC(=O)c3ccc(NC(=O)CCN)c(O)c3)CSC12)c1csc(N)n1)C(=O)O (stereo not drawn): 0.29
- CC(C)(ON=C(C(=O)NC1C(=O)N2C(C(=O)O)=C(COC(=O)c3ccc(NC(=O)CN)cc3)CSC12)c1csc(N)n1)C(=O)O (stereo not drawn) [Product A, reference compound]: 0.55
- CC(C)(ON=C(C(=O)NC1C(=O)N2C(C(=O)O)=C(COC(=O)c3ccc(NC(=O)CCN)cc3)CSC12)c1csc(N)n1)C(=O)O (stereo not drawn) [Product B, reference compound]: 0.52

Switching to the query record.
Query string: Bench note: what fraction unbound did CC(C)(O/N=C(\C(=O)NC1C(=O)N2C(C(=O)O)=C(COC(=O)c3ccc(NC(=O)[C@@H](N)CCCN)c(O)c3)CSC12)c1csc(N)n1)C(=O)O (stereo partly drawn) show?
Result string: 0.16

* * *

Experiment: pharmacokinetic behavior in baboons, 20 mg/kg (Tables 4 and 6)
Type: in vivo
Conditions: baboon, plasma, 20 mg/kg, 180 minutes
Method: Furthermore, the pharmacokinetic behavior of the products according to the invention was studied in baboons after administration at a dose of 20 mg/kg by intramuscular injection or intravenous injection. […] the elimination half-life (t1/2 β) is calculated by the formula [formula] in which β represents the elimination gradient or slope; the area under the curve (AUC) is determined by the trapezium method. […]
test_readout: concentration at 3 h (µg/mL)
Could you give me the number in µg/mL? Just the number is fine.

Sample answers from the record:
- CC(C)(O/N=C(\C(=O)NC1C(=O)N2C(C(=O)O)=C(COC(=O)c3ccc(NC(=O)CCN)c(O)c3)CSC12)c1csc(N)n1)C(=O)O (stereo not drawn): 59.7
- CC(C)(O/N=C(\C(=O)NC1C(=O)N2C(C(=O)O)=C(COC(=O)c3ccc(NC(=O)[C@@H](N)CCCN)c(O)c3)CSC12)c1csc(N)n1)C(=O)O (stereo partly drawn): 169

Let us examine a further case.
Query string: Tell me the measured concentration at 3 h of CC(C)(ON=C(C(=O)NC1C(=O)N2C(C(=O)O)=C(COC(=O)c3ccc(NC(=O)CN)cc3)CSC12)c1csc(N)n1)C(=O)O (stereo not drawn) [Product A, reference compound] , please.
Result string: 40

* * *

Assay: pharmacokinetic behavior in baboons, 20 mg/kg (Tables 4 and 6)
Format: in vivo
Details: baboon, plasma, 20 mg/kg, 120 minutes
Simple rule here: concentration at 2 h less than 80 µg/mL is 1, otherwise -1.

These solved cases illustrate the format of a correct answer.
• CC(C)(ON=C(C(=O)NC1C(=O)N2C(C(=O)O)=C(COC(=O)c3ccc(NC(=O)CN)cc3)CSC12)c1csc(N)n1)C(=O)O (stereo not drawn) [Product A, reference compound] = 1
• CC(C)(O/N=C(\C(=O)NC1C(=O)N2C(C(=O)O)=C(COC(=O)c3ccc(NC(=O)CN)c(O)c3)CSC12)c1csc(N)n1)C(=O)O (stereo not drawn) [SR 43753] = -1
• CC(C)(O/N=C(\C(=O)NC1C(=O)N2C(C(=O)O)=C(COC(=O)c3ccc(NC(=O)CCN)c(O)c3)CSC12)c1csc(N)n1)C(=O)O (stereo not drawn) [SR 43904] = 1
• CC(C)(O/N=C(\C(=O)NC1C(=O)N2C(C(=O)O)=C(COC(=O)c3ccc(NC(=O)C(N)CCN)c(O)c3)CSC12)c1csc(N)n1)C(=O)O (stereo not drawn) [SR 44130] = -1
• CC(C)(ON=C(C(=O)NC1C(=O)N2C(C(=O)O)=C(COC(=O)c3ccc(NC(=O)CCN)cc3)CSC12)c1csc(N)n1)C(=O)O (stereo not drawn) [Product B, reference compound] = 1

Query string: Strictly below 80 µg/mL in concentration at 2 h? CC(C)(O/N=C(\C(=O)NC1C(=O)N2C(C(=O)O)=C(COC(=O)c3ccc(NC(=O)[C@@H](N)CCCN)c(O)c3)CSC12)c1csc(N)n1)C(=O)O (stereo partly drawn) [SR 44128]
Result string: -1

* * *

// Escherichia coli SOL RL 90 MIC records
Give just the numeric value; µg/mL need not be written.

Recorded results for 4 compounds are shown here.
• CO/N=C(\C(=O)NC1C(=O)N2C(C(=O)O)=C(COC(=O)c3ccc(NC(=O)[C@@H](N)CCCN)c(O)c3)CSC12)c1csc(N)n1 (stereo partly drawn) = 0.12
• CO/N=C(\C(=O)NC1C(=O)N2C(C(=O)O)=C(COC(=O)c3ccc(NC(=O)C(N)CCN)c(O)c3)CSC12)c1csc(N)n1 (stereo not drawn) = 0.5
• CC(C)(O/N=C(\C(=O)NC1C(=O)N2C(C(=O)O)=C(COC(=O)c3ccc(NC(=O)[C@@H](N)CCCN)c(O)c3)CSC12)c1csc(N)n1)C(=O)O (stereo partly drawn) = 2
• CO/N=C(\C(=O)NC1C(=O)N2C(C(=O)O)=C(COC(=O)c3ccc(NC(=O)CCN)c(O)c3)CSC12)c1csc(N)n1 (stereo not drawn) = 0.25

Query string: Quick check: MIC on Escherichia coli SOL RL 90, item CO/N=C(\C(=O)NC1C(=O)N2C(C(=O)O)=C(COC(=O)c3ccc(NC(=O)CN)c(O)c3)CSC12)c1csc(N)n1 (stereo not drawn) ?
Result string: 0.25

Query string: Form field - read-out: MIC; system: Escherichia coli SOL RL 90; submitted item: CC(C)(O/N=C(\C(=O)NC1C(=O)N2C(C(=O)O)=C(COC(=O)c3ccc(NC(=O)CN)c(O)c3)CSC12)c1csc(N)n1)C(=O)O (stereo not drawn)
Result string: 2

* * *

Test: pharmacokinetic behavior in baboons, 20 mg/kg (Tables 4 and 6)
Type: in vivo
Conditions: baboon, plasma, 20 mg/kg, 60 minutes
Item-by-item account of concentration at 1 h
Enter your answer as a number in µg/mL; do not include the unit.

The cases that follow already have their concentration at 1 h on record.
* CC(C)(ON=C(C(=O)NC1C(=O)N2C(C(=O)O)=C(COC(=O)c3ccc(NC(=O)CCN)cc3)CSC12)c1csc(N)n1)C(=O)O (stereo not drawn) [Product B, reference compound] | 20.7
* CC(C)(ON=C(C(=O)NC1C(=O)N2C(C(=O)O)=C(COC(=O)c3ccc(NC(=O)CN)cc3)CSC12)c1csc(N)n1)C(=O)O (stereo not drawn) [Product A, reference compound] | 60
* CC(C)(O/N=C(\C(=O)NC1C(=O)N2C(C(=O)O)=C(COC(=O)c3ccc(NC(=O)CN)c(O)c3)CSC12)c1csc(N)n1)C(=O)O (stereo not drawn) | 139
* CC(C)(O/N=C(\C(=O)NC1C(=O)N2C(C(=O)O)=C(COC(=O)c3ccc(NC(=O)CCN)c(O)c3)CSC12)c1csc(N)n1)C(=O)O (stereo not drawn) | 76.1

Query string: Tell me the measured concentration at 1 h of CC(C)(O/N=C(\C(=O)NC1C(=O)N2C(C(=O)O)=C(COC(=O)c3ccc(NC(=O)C(N)CCN)c(O)c3)CSC12)c1csc(N)n1)C(=O)O (stereo not drawn) , please.
Result string: 122

Query string: Entry under review: CC(C)(O/N=C(\C(=O)NC1C(=O)N2C(C(=O)O)=C(COC(=O)c3ccc(NC(=O)[C@@H](N)CCCN)c(O)c3)CSC12)c1csc(N)n1)C(=O)O (stereo partly drawn) . Reported concentration at 1 h?
Result string: 188
